Reported IC50 values for a set of molecules
target_entity: PA/PB1 (Influenza A virus (A/Puerto Rico/8/1934(H1N1)), UniProt P03431+P03433)
test_protocol: Inhibition of Influenza A virus (A/Puerto Rico/8/34(H1N1)) His6-tagged PA (239 to 716) interaction with GST-tagged PB1 (1 to 25) expressed in Escherichia coli BL21 (DE3) by ELISA

- query_smiles: "O=C(Nc1sc2c(c1C(=O)Nc1ccccn1)CCCCC2)c1ccc(F)cc1"
  comparison_operator: "="
  IC50, µM: 99
- query_smiles: "O=C(Cc1ccc(F)cc1)Nc1sc2c(c1C(=O)Nc1ccccn1)CCCCC2"
  comparison_operator: ">"
  IC50, µM: 200
- query_smiles: "CCOC(=O)c1c(NC(=O)c2ccc(Cl)cc2)sc2c1CCCCC2"
  comparison_operator: ">"
  IC50, µM: 200
- query_smiles: "O=C(Cc1ccc(Cl)cc1)Nc1sc2c(c1C(=O)Nc1ccccn1)CCCCC2"
  comparison_operator: ">"
  IC50, µM: 200
- query_smiles: "O=C(Nc1sc2c(c1C(=O)Nc1ccccn1)CCCCC2)c1ccc(Cl)cc1"
  comparison_operator: "="
  IC50, µM: 32

====

System: Influenza A virus
Format: functional, organism-based
applied_conditions: A/Padova/30/2011(H1N1), MDCK, 48 h
property_measured: EC50 (µM)

- query_smiles: "NC(=O)c1ncn([C@@H]2O[C@H](CO)[C@@H](O)[C@H]2O)n1"
  property_measured: "EC50"
  endpoint_value: 7

====

Reported IC50 values for a set of compounds
target_entity: PA/PB1 (Influenza A virus (A/Puerto Rico/8/1934(H1N1)), UniProt P03431+P03433)
test_protocol: Inhibition of Influenza A virus (A/Puerto Rico/8/34(H1N1)) His6-tagged PA (239 to 716) interaction with GST-tagged PB1 (1 to 25) expressed in Escherichia coli BL21 (DE3) by ELISA
property_measured: IC50

- query_smiles: "O=C(Nc1sc2c(c1C(=O)Nc1ccccn1)CCCCC2)c1ccc(F)cc1Cl"
  target_entity: "PA/PB1 (Influenza A virus (A/Puerto Rico/8/1934(H1N1)), UniProt P03431+P03433)"
  endpoint_value: "> 200 µM"
- query_smiles: "O=C(Cc1ccccc1)Nc1sc2c(c1C(=O)Nc1ccccn1)CCCCC2"
  target_entity: "PA/PB1 (Influenza A virus (A/Puerto Rico/8/1934(H1N1)), UniProt P03431+P03433)"
  endpoint_value: "> 200 µM"
- query_smiles: "NC(=O)c1c(NC(=O)c2ccccc2F)sc2c1CCCCC2"
  target_entity: "PA/PB1 (Influenza A virus (A/Puerto Rico/8/1934(H1N1)), UniProt P03431+P03433)"
  endpoint_value: "> 200 µM"
- query_smiles: "CCOC(=O)c1c(NC(=O)c2ccccc2Cl)sc2c1CCCCC2"
  target_entity: "PA/PB1 (Influenza A virus (A/Puerto Rico/8/1934(H1N1)), UniProt P03431+P03433)"
  endpoint_value: "> 200 µM"
- query_smiles: "COc1ccc(C(=O)Nc2sc3c(c2C(=O)O)CCCCC3)cc1"
  target_entity: "PA/PB1 (Influenza A virus (A/Puerto Rico/8/1934(H1N1)), UniProt P03431+P03433)"
  endpoint_value: "> 200 µM"
- query_smiles: "O=C(CCc1ccccc1)Nc1sc2c(c1C(=O)Nc1ccccn1)CCCCC2"
  target_entity: "PA/PB1 (Influenza A virus (A/Puerto Rico/8/1934(H1N1)), UniProt P03431+P03433)"
  endpoint_value: "> 200 µM"
- query_smiles: "O=C(Nc1sc2c(c1C(=O)Nc1ccccn1)CCCCC2)c1ccccc1"
  target_entity: "PA/PB1 (Influenza A virus (A/Puerto Rico/8/1934(H1N1)), UniProt P03431+P03433)"
  endpoint_value: "87 µM"
- query_smiles: "COc1c(CC(=O)Nc2sc3c(c2C(=O)Nc2ccccn2)CCCCC3)sc2ccccc12"
  target_entity: "PA/PB1 (Influenza A virus (A/Puerto Rico/8/1934(H1N1)), UniProt P03431+P03433)"
  endpoint_value: "90 µM"
- query_smiles: "O=C(Nc1sc2c(c1C(=O)O)CCCCC2)c1ccc(Cl)cc1"
  target_entity: "PA/PB1 (Influenza A virus (A/Puerto Rico/8/1934(H1N1)), UniProt P03431+P03433)"
  endpoint_value: "> 200 µM"
- query_smiles: "O=C(Nc1sc2c(c1C(=O)O)CCCCC2)c1ccccc1Cl"
  target_entity: "PA/PB1 (Influenza A virus (A/Puerto Rico/8/1934(H1N1)), UniProt P03431+P03433)"
  endpoint_value: "> 200 µM"
- query_smiles: "NC(=O)c1c(NC(=O)c2ccccc2F)sc2c1CCC2"
  target_entity: "PA/PB1 (Influenza A virus (A/Puerto Rico/8/1934(H1N1)), UniProt P03431+P03433)"
  endpoint_value: "> 200 µM"

Reference source for all entries: ChEMBL document CHEMBL3108691
